- target under test: UniProt:P56817
- Sequence (P56817 whole entry, the tested form may be a part): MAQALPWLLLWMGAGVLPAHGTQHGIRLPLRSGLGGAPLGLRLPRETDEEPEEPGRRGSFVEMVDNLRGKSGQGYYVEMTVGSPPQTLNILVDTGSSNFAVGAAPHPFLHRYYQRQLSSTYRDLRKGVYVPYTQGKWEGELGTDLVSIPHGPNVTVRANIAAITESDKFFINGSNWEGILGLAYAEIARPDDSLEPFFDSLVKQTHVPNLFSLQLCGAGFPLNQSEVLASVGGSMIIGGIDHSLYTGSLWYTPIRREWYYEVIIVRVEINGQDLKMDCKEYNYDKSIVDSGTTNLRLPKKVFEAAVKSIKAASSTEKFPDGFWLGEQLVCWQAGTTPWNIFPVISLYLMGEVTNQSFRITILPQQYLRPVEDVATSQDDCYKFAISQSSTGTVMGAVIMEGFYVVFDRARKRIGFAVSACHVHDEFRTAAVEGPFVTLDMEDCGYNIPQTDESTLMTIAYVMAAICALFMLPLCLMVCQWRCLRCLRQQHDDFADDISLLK
- measurement description: Inhibition of BACE1-mediated production of secreted beta-secretase amino terminal fragment
Give measured IP for each item. Keep answers brief.
Number in nM, nothing else.

Query :: Which measured IP value corresponds to COCCN(C[C@H]1C[C@@H]1C)c1cc(-c2nnc([C@](C)(N)Cc3cccc(F)c3)o2)c(Cl)c(N(C)S(C)(=O)=O)n1 ?
Result :: 304

Query :: Which measured IP value corresponds to COCCN(C[C@H]1C[C@@H]1C)c1cc(-c2nnc([C@](C)(N)Cc3ccc(Cl)cc3)o2)c(Cl)c(N(C)S(C)(=O)=O)n1 ?
Result :: 320

Query :: Which measured IP value corresponds to COCCN(C[C@H]1C[C@@H]1C)c1cc(-c2nnc([C@](C)(N)Cc3ccoc3)o2)c(Cl)c(N(C)S(C)(=O)=O)n1 ?
Result :: 1930

Query :: Which measured IP value corresponds to COCCN(C[C@H]1C[C@@H]1C)c1cc(-c2nnc([C@](C)(N)Cc3ccco3)o2)c(Cl)c(N(C)S(C)(=O)=O)n1 ?
Result :: 3190
